- System: Plasmodium berghei
- test-details: Luciferase/luciferin-expressing antifolate-resistant parasites were used to infect a culture of HepG2 cells that were pre-incubated with compounds. Infected hepatocytes emit light due to the luciferase reaction. Assay results are presented as the percent inhibition of light emission compared to control. […]
- Format: functional
- assay-context: sporozoite, HEPG2TOX_HILL_SLOPE 5.27, HEPG2TOX_R_SQUARED 0.234, read-out: LUCIFERASE INFECTION ASSAY - IC50
measured-metric: IC50

{"compound": "COc1ccc(C2c3c(C)nn(-c4ccccc4)c3N=C(c3ccccc3F)N2C2CC2)cc1 (stereo unspecified)", "subject-of-test": "Plasmodium berghei", "measured-metric": "IC50", "measured-value": "> 10 µM"}

###

Here, each record is paired with measured IC90 data.
- Test system: Plasmodium berghei
- test-details: Luciferase/luciferin-expressing antifolate-resistant parasites were used to infect a culture of HepG2 cells that were pre-incubated with compounds. Infected hepatocytes emit light due to the luciferase reaction. Assay results are presented as the percent inhibition of light emission compared to control. […]
- Type: functional
- assay-context: sporozoite, read-out: LUCIFERASE INFECTION ASSAY - IC90
measured-metric: IC90

{"compound": "CC1CCCCN1CCCNC(=S)Nc1cc(C(F)(F)F)cc(C(F)(F)F)c1 (stereo unspecified)", "subject-of-test": "Plasmodium berghei", "measured-value": "> 7.72 µM"}
{"compound": "COc1ccc(-c2csc3nc(-c4cccnc4)nc(NCCN4CCOCC4)c23)cc1OC", "subject-of-test": "Plasmodium berghei", "measured-value": "> 10 µM"}
{"compound": "N#CC(Cc1ccccc1)Sc1nnc(-c2ccccc2)n1-c1ccccc1 (stereo unspecified)", "subject-of-test": "Plasmodium berghei", "measured-value": "> 10 µM"}
{"compound": "Cc1ccc(N2C(=O)c3ccccc3C(C=NNC(=O)c3ccc(CSc4ccc(Cl)cc4)cc3)C2=O)cc1C (stereo unspecified)", "subject-of-test": "Plasmodium berghei", "measured-value": "> 10 µM"}
{"compound": "Cc1sc2ncnc(Oc3ccc4ccccc4c3)c2c1-c1ccccc1", "subject-of-test": "Plasmodium berghei", "measured-value": "> 10 µM"}
{"compound": "Cc1c(C(=O)c2ccccc2)oc2ccc(NC(=O)c3ccco3)cc12", "subject-of-test": "Plasmodium berghei", "measured-value": "> 9.56 µM"}
{"compound": "N=C(Cc1ccc([N+](=O)[O-])cc1)NOC(=O)c1cccs1", "subject-of-test": "Plasmodium berghei", "measured-value": "> 10.8 µM"}
{"compound": "Cc1csc(C(C#N)C(=O)CSc2nnc(Nc3ccc(OC(F)(F)F)cc3)s2)n1 (stereo unspecified)", "subject-of-test": "Plasmodium berghei", "measured-value": "> 10 µM"}
{"compound": "CC(C)n1ncc2cc(C(=O)Nc3cccc4c3CCCC4)cnc21", "subject-of-test": "Plasmodium berghei", "measured-value": "8.92 µM"}
{"compound": "Cc1cc(C(C)(C)C)cc(C)c1CCNC(=O)c1ccc[n+]([O-])c1", "subject-of-test": "Plasmodium berghei", "measured-value": "> 10 µM"}
{"compound": "Clc1cccc(-c2cc3c(Nc4ccc5c(c4)OCCO5)nccc3[nH]2)c1", "subject-of-test": "Plasmodium berghei", "measured-value": "> 10 µM"}
{"compound": "COC(=O)c1sccc1Oc1ccc(C(F)(F)F)cc1NC(=O)Nc1c(Cl)cc(Cl)cc1Cl", "subject-of-test": "Plasmodium berghei", "measured-value": "> 6.11 µM"}
{"compound": "O=C(c1cccs1)N1CCc2[nH]nc(-c3ccc(Cl)cc3)c2C1", "subject-of-test": "Plasmodium berghei", "measured-value": "> 9.6 µM"}
{"compound": "CC(C)c1ccc(OCC(=O)Nc2ccccc2C(F)(F)F)cc1", "subject-of-test": "Plasmodium berghei", "measured-value": "> 9.78 µM"}
{"compound": "COc1ccc2c3c(cccc13)C(=O)N(c1nc3ccccc3n1C)C2=O", "subject-of-test": "Plasmodium berghei", "measured-value": "> 9.23 µM"}
{"compound": "CCOC(=O)Cc1csc(SCC(=O)c2cc(C)n(-c3ccc4c(c3)OCO4)c2C)n1", "subject-of-test": "Plasmodium berghei", "measured-value": "> 10 µM"}
{"compound": "O=C(NC1CC1)c1ccc(-c2cn3c(-c4ccc(O)cc4)cnc3cn2)cc1", "subject-of-test": "Plasmodium berghei", "measured-value": "> 8.91 µM"}
{"compound": "CC(C)c1ccc(OCC(=O)NC2CCCCCC2)cc1", "subject-of-test": "Plasmodium berghei", "measured-value": "> 11.4 µM"}
{"compound": "COc1ccc(C2C3CCc4ccccc4C3=NN2CCO)cc1 (stereo unspecified)", "subject-of-test": "Plasmodium berghei", "measured-value": "> 10.2 µM"}
{"compound": "Cc1ccc(C)c(-c2nn(CC(=O)N3c4ccccc4CC3C)c(=O)c3ccccc23)c1 (stereo unspecified)", "subject-of-test": "Plasmodium berghei", "measured-value": "> 10 µM"}
{"compound": "COc1ccc2cc(C3(C)NC(=O)N(Cc4nc(N)nc(Nc5ccc(F)cc5)n4)C3=O)ccc2c1 (stereo unspecified)", "subject-of-test": "Plasmodium berghei", "measured-value": "> 10 µM"}

###

- Test system: Plasmodium berghei
- test-details: Luciferase/luciferin-expressing antifolate-resistant parasites were used to infect a culture of HepG2 cells that were pre-incubated with compounds. Infected hepatocytes emit light due to the luciferase reaction. Assay results are presented as the percent inhibition of light emission compared to control. […]
- Type: functional
- assay-context: sporozoite, HEPG2TOX_HILL_SLOPE 2.54, HEPG2TOX_R_SQUARED 0.987, PBLUC_HILL_SLOPE 3.36, PBLUC_R_SQUARED 0.0445, read-out: LUCIFERASE INFECTION ASSAY - IC50
pIC50: −log10 of the molar value.

{"smiles-representation": "COCCNc1nc(Nc2ccc(C)cc2C)c2sccc2n1", "pIC50": "< 5.00"}

###

- Test system: Plasmodium berghei
- test-details: Luciferase/luciferin-expressing antifolate-resistant parasites were used to infect a culture of HepG2 cells that were pre-incubated with compounds. Infected hepatocytes emit light due to the luciferase reaction. Assay results are presented as the percent inhibition of light emission compared to control. […]
- Assay type: functional
- assay-context: sporozoite, PBLUC_HILL_SLOPE 3.35, PBLUC_R_SQUARED 0.57, read-out: LUCIFERASE INFECTION ASSAY - IC50
pIC50: −log10 of the molar value.
measured-metric: pIC50

{"smiles-representation": "CN1CCN(c2ccc(-c3cn4c(-c5ccccc5)cnc4cn3)cn2)CC1", "measured-value": 5.40}

###

- Tested on: Plasmodium berghei
- test-details: Luciferase/luciferin-expressing antifolate-resistant parasites were used to infect a culture of HepG2 cells that were pre-incubated with compounds. Infected hepatocytes emit light due to the luciferase reaction. Assay results are presented as the percent inhibition of light emission compared to control. […]
- Type: functional
- assay-context: sporozoite, HEPG2TOX_HILL_SLOPE 2.67, HEPG2TOX_R_SQUARED 0.695, PBLUC_HILL_SLOPE 3.91, PBLUC_R_SQUARED 0.793, read-out: LUCIFERASE INFECTION ASSAY - IC50

{"smiles-representation": "COc1cc(-c2cnc3cnc(-c4ccc(N)nc4)cn23)ccc1O", "subject-of-test": "Plasmodium berghei", "IC50 (µM)": 2.33}

###

- System: Plasmodium berghei
- test-details: Luciferase/luciferin-expressing antifolate-resistant parasites were used to infect a culture of HepG2 cells that were pre-incubated with compounds. Infected hepatocytes emit light due to the luciferase reaction. Assay results are presented as the percent inhibition of light emission compared to control. […]
- Type: functional
- assay-context: sporozoite, PBLUC_HILL_SLOPE 4.7, PBLUC_R_SQUARED 0.148, read-out: LUCIFERASE INFECTION ASSAY - IC50
measured-metric: IC50 (µM)

{"smiles-representation": "CCCCNC(=O)c1c(NCCC)sc(C(=O)c2ccc(OC)cc2)c1N", "u": "µM", "measured-value": 8.99}

###

- Tested on: Plasmodium berghei
- test-details: Luciferase/luciferin-expressing antifolate-resistant parasites were used to infect a culture of HepG2 cells that were pre-incubated with compounds. Infected hepatocytes emit light due to the luciferase reaction. Assay results are presented as the percent inhibition of light emission compared to control. […]
- Format: functional
- assay-context: sporozoite, read-out: LUCIFERASE INFECTION ASSAY - IC90

{"smiles-representation": "Clc1ccccc1-c1nc2ccnc(NCCc3ccccn3)c2[nH]1", "u": "µM", "result-modifier": ">", "IC90": 10}
{"smiles-representation": "O=C(CCN1CCN(c2ccccc2)CC1)NNC(=O)c1ccc(C(F)(F)F)cn1", "u": "µM", "result-modifier": "=", "IC90": 7.86}
{"smiles-representation": "O=C(NCc1ccc(-c2nc3ccccc3s2)cc1)c1ccco1", "u": "µM", "result-modifier": "=", "IC90": 3.45}
{"smiles-representation": "O=C(Cc1nc(=O)c2c3c(sc2[nH]1)CCCC3)c1c[nH]c2ccccc12", "u": "µM", "result-modifier": ">", "IC90": 10}
{"smiles-representation": "Cn1ccc2cc(-c3cnc4cnc(-c5ccccc5CO)cn34)ccc21", "u": "µM", "result-modifier": "=", "IC90": 0.0193}
{"smiles-representation": "O=C(COC(=O)C1(c2ccccc2F)CCCC1)NC1CCCCCCC1", "u": "µM", "result-modifier": ">", "IC90": 10}
{"smiles-representation": "Cc1nn(-c2ccc(F)cc2)c2ncc(C(=O)Nc3nc(C4CC4)cs3)cc12", "u": "µM", "result-modifier": "=", "IC90": 4.45}
{"smiles-representation": "CSc1sc(C(=O)N2CCOCC2)c2c1S(=O)(=O)N(C)c1ccccc1-2", "u": "µM", "result-modifier": ">", "IC90": 8.04}
{"smiles-representation": "COc1ccc(OC)c(S(=O)(=O)Nc2ccc(S(=O)(=O)Nc3cc(C(F)(F)F)cc(C(F)(F)F)c3)cc2)c1", "u": "µM", "result-modifier": ">", "IC90": 5.65}
{"smiles-representation": "CCOc1ccc(-n2c(SCC(=O)N(C)Cc3ccccc3)nc3ccccc32)cc1", "u": "µM", "result-modifier": ">", "IC90": 10}

Reference source: ChEMBL document CHEMBL4483862
